target: Recombinant soluble trimeric H1 HA ectodomain of A/California/04/2009 (H1N1) (Influenza A virus A/California/04/2009 …); assay: fluorescence polarisation; conditions: both partners purified
pKd: −log10 of the molar value. No end group written: not given here.
MEASURED_QUANTITY: pKd

| BINDER | MEASURED |
| --- | --- |
| YRWVWTSFFSEPYFVVC (thioether (positions not given here); not fully specified (N-terminus, bridges); also: fluorescein (FAM) label, position not given here) [Fluorescein-labeled macrocyclic peptide L4] | ≥ 9.00 |
| YWHKNKYVLTYSCLFAA (thioether (positions not given here); not fully specified (N-terminus, bridges); also: fluorescein (FAM) label, position not given here) [Fluorescein-labeled macrocyclic peptide L2] | 8.62 |
| YVLFRWDHGTLATHWVC (thioether (positions not given here); not fully specified (N-terminus, bridges); also: fluorescein (FAM) label, position not given here) [Fluorescein-labeled macrocyclic peptide S5] | ≥ 9.00 |
| YLKIYWSKIHGLVSEWC (thioether (positions not given here); not fully specified (N-terminus, bridges); also: fluorescein (FAM) label, position not given here) [Fluorescein-labeled macrocyclic peptide S3] | ≥ 9.00 |

Where do the numbers come from? From paper PMC9486808.
